Target: HSP27 (Homo sapiens)
Sequence (P04792 whole entry): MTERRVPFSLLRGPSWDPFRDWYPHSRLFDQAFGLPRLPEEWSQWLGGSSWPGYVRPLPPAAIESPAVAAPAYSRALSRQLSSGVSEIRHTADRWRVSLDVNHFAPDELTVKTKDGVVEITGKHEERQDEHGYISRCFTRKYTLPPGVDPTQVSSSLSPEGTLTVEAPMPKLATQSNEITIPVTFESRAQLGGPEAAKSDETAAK
Procedure Text: Capillary electrophoresis of heat-denatured citrate synthase protein precipitates
Type: biochemical
Experimental Conditions: 10 μmol/L, 43° C. for 120 minutes; relative to 750 μmol/L BVDU = 1 (Table 2)
Measurement Label: Rel. quantity of protein prec. CS
Give bare numbers.

CC(=O)c1ccc2c(c1)N(CCCN(C)C)c1ccccc1S2 = 0.99

Look up Rel. quantity of protein prec. CS for the entries below, preserving their order.
1. Cc1cn(CC=CCNC(=O)C2c3ccccc3Oc3ccccc32)c(=O)[nH]c1=O
2. CN(C)CCCN1c2ccccc2Sc2ccc(Cl)cc21 [Chlorpromazine, reference compound]

Out:
1. 0.65
2. 1.06

In: // fetch Rel. quantity of protein prec. CS given entry Cc1cn(CC=CCNC(=O)Cc2ccc(-c3ccccc3)cc2)c(=O)[nH]c1=O
Out: 0.81
